Provenance of the data: paper PMC5540273

# System: CASK
# Condition description: concentration: 1 μM, replicates: in singlicate; n = 1;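 also: KINOMEscan kinase panel screen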
Quantity name: %Inh (%)
Note: unit % is implicit; provide only the numeric part.

Before answering, review these 4 worked examples.
>  <Item smiles>
CCC(=O)c1c(-c2ccccc2)c2cc(Cl)ccc2c(=O)n1Cc1cc(S(C)(=O)=O)n(CCC(C)(C)O)n1

>  <Assay target>
CASK

>  <Test result>
0

$$$$
>  <Item smiles>
O=C(Nc1n[nH]c2nc(-c3ccccc3)c(Cl)cc12)C1CC1

>  <Assay target>
CASK

>  <Test result>
35

$$$$
>  <Item smiles>
COc1cc(Nc2ccnc3ccc(C(F)(F)F)cc23)cc(OC)c1OC

>  <Assay target>
CASK

>  <Test result>
25

$$$$
>  <Item smiles>
O=C(Nc1n[nH]c2cc(-c3ccccc3F)ccc12)C1CC1

>  <Assay target>
CASK

>  <Test result>
0

$$$$

As a next step, examine the molecule that follows.
Asked: Look at this molecule and give its reported %Inh. O=C(NCc1cccs1)c1cc(C(=O)c2c(Cl)cccc2Cl)c[nH]1
Given back: 5

----------
# System: TYK2(JH2domain-pseudokinase)
# Condition description: concentration: 1 μM, replicates: in singlicate; n = 1
Measured %Inh by item
Note: unit % is implicit; provide only the numeric part.

>  <Compound>
Nc1ncnc2c1ncn2-c1cccc(F)c1

>  <%Inh, %>
35

$$$$
>  <Compound>
Cl.NS(=O)(=O)c1cccc(Nc2cc(-c3ccc(F)cc3)n[nH]2)c1

>  <%Inh, %>
9

$$$$
>  <Compound>
COc1cc2nccc(Nc3ccc(OCc4ccc(NC(C)=O)cc4)cc3)c2cc1OC.Cl

>  <%Inh, %>
5

$$$$
>  <Compound>
COc1cc(OC)cc(-c2cc3cnc(N)nc3nc2NC(=O)NC(C)(C)C)c1

>  <%Inh, %>
3

$$$$
>  <Compound>
COc1cccc(-n2cnc3c(N)ncnc32)c1

>  <%Inh, %>
40

$$$$
>  <Compound>
Cc1nn2c(=O)cc(N3CCOCC3)nc2n1Cc1cccc(Cl)c1Cl

>  <%Inh, %>
4

$$$$
>  <Compound>
CN(C)c1cc(-c2ccc3c(N)n[nH]c3c2)nc(N)n1

>  <%Inh, %>
25

$$$$
>  <Compound>
Cc1ccc(-c2ccc3c(ccc4sc5c(c43)NC[C@@H](C)N=C5N(C)C)n2)cn1

>  <%Inh, %>
0

$$$$
>  <Compound>
CN1C(=O)C(Nc2ccccc2)=C(c2ccccc2)C1=O

>  <%Inh, %>
17

$$$$
>  <Compound>
Cc1nnc(-c2ccc(C)c(-c3ccc(C(=O)O)cc3)c2)o1

>  <%Inh, %>
8

$$$$

Asked: Look at this compound and give its reported %Inh. COc1cc2ncn(-c3cc(OCc4ccncc4Br)c(C(N)=O)s3)c2cc1OC
Given back: 5

Asked: Look at this compound and give its reported %Inh. COC(=O)c1c(-c2ccccc2)c2cc(Br)ccc2c(=O)n1Cc1ccc(NC(=O)CCC(=O)O)cc1
Given back: 0

Asked: Look at this compound and give its reported %Inh. CCS(=O)c1ccc(-c2coc3ccc(-c4nnc(C)o4)cc23)cc1 (stereo not shown)
Given back: 11

----------
# Tested on: CDKL5
# Condition description: concentration: 1 μM, replicates: in singlicate; n = 1
Quantity name: %Inh
The reply should read as a number followed by its unit.

Before answering, review these 3 worked examples.
>  <Compound>
Cc1nn2c(=O)cc(N3CCOCC3)nc2n1Cc1cccc(Cl)c1Cl [GSK2342769]

>  <Assay target>
CDKL5

>  <Quantity name>
%Inh

>  <Test result>
8%

$$$$
>  <Compound>
COc1ccc(-c2cc3c(C)nc(N)nc3n([C@H]3CC[C@H](O)CC3)c2=O)cn1

>  <Assay target>
CDKL5

>  <Quantity name>
%Inh

>  <Test result>
0%

$$$$
>  <Compound>
Nc1ncnc2c1ncn2-c1ccc(Cl)cc1 [AH2635]

>  <Assay target>
CDKL5

>  <Quantity name>
%Inh

>  <Test result>
0%

$$$$

Asked: Look at this compound and give its reported %Inh. COc1cc2ncn(-c3cc(OCc4ccncc4Br)c(C(N)=O)s3)c2cc1OC [GW854278]
Given back: 0%

Asked: Look at this compound and give its reported %Inh. CCS(=O)(=O)c1ccc(OC)c(Nc2ncc(-c3ccc(F)cc3)o2)c1.Cl [GW591947]
Given back: 0%

Asked: Look at this compound and give its reported %Inh. Cc1c(Cn2c(C)nn3c(=O)cc(N4CCO[C@H](C)C4)nc23)cccc1C(F)(F)F [GSK2373690]
Given back: 7%
